Assay: Short term HFD mouse model: liver and plasma exposure after multiple oral dosing
Assay type: in vivo, mice (C57BL/6J)
Details: C57BL/6J, liver/plasma, HFD mice, three oral doses of 20 mg/kg each, 4 h after final dose, read-out: liver/plasma ratio, 4 h
Define the label as yes when Kp at 4 h is strictly less than 50 and as no in all remaining cases.

Kp at 4 h strictly < 50 for this compound? Cc1ccc2ccccc2c1CN(Cc1ccc(-c2cccc(C(C)(C)C(=O)O)c2)cc1)Cc1ccc(C(F)(F)F)o1 [Example 24] yes

What do you get for Cc1ccc2ccccc2c1C(=O)N(Cc1ccc(-c2cccc(S(=O)(=O)CC(=O)O)c2)cc1)Cc1ccc(C(F)(F)F)o1 [Example 9] ? no

And CC(C)(C(=O)O)c1cccc(-c2ccc(CN(Cc3ccc(C(F)(F)F)o3)C(=O)c3c4ccccc4cc4ccccc34)cc2)c1 [27/47] ? yes

Subsequent entry: CCc1nc2ccccc2c(C(=O)N(Cc2ccc(-c3cccc(C(C)(C)C(=O)O)c3)cc2)Cc2ccc(C(F)(F)F)o2)c1C [27/43] yes

How about Cc1ccc2ccccc2c1C(=O)N(Cc1ccc(C(F)(F)F)o1)Cc1ccc(-c2cccc(C(C)(C)C(=O)O)c2)cc1C#N [27/7] ? no

Likewise for CCOC(=O)c1ccc(CN(Cc2ccc(-c3cccc(C(C)(C)C(=O)O)c3)cc2)C(=O)c2c(C)ccc3ccccc23)o1 [27/28] ? no

Please give the result for Cc1ccc2ccccc2c1C(=O)N(Cc1ccc(-c2cccc(C(C)(C)C(=O)O)c2)cc1)Cc1ccc(C(F)(F)F)o1 [27/26] too. yes

Query Cc1ccc2ccccc2c1C(=O)N(Cc1ccc(-c2cc(F)c(CO)c(S(=O)(=O)CC(=O)O)c2)cc1)Cc1ccc(C(F)(F)F)o1 [22/8] next no

How about Cc1ccc2ccccc2c1C(=O)N(Cc1ccc(-c2cccc(C(C)(C)C(=O)O)c2)cc1)Cc1ccc(C#N)o1 [27/38] ? yes
